Test System: DPP-4 (Homo sapiens, UniProt P27487)
Sequence (P27487 whole entry, species assumed): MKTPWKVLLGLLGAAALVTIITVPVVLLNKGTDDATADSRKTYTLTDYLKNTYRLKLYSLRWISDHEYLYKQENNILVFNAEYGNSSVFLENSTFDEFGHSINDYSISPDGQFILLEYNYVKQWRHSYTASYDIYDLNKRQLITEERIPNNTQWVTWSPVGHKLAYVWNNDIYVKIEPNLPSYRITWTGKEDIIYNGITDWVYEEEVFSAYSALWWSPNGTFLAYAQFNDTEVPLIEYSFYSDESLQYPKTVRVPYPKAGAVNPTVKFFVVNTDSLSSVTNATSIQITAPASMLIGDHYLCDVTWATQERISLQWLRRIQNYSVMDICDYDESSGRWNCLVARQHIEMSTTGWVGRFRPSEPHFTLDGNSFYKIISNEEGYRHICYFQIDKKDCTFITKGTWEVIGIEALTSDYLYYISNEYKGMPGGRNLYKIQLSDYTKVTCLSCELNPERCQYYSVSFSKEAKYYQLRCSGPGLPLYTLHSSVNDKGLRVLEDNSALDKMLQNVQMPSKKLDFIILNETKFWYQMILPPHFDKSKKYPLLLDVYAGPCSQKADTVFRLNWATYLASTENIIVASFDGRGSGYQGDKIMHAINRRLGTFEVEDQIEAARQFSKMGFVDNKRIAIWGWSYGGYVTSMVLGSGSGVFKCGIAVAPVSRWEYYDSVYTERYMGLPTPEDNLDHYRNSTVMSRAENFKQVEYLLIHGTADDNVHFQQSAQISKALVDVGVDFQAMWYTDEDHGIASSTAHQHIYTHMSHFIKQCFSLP
Parameter Measured: pIC50
Please report pIC50 as the negative decimal logarithm of the molar concentration, giving only the number.

Entry under review: COc1ccc2cc3[n+](cc2c1OC)CCc1cc2c(cc1-3)OCO2 [Berberine, reference compound] . Reported pIC50? 4.56
